- MEASUREMENT_TARGET: Recombinant human TLR7 (Homo sapiens)
- Construct: TLR7 in vector pUNO, blasticidin selection
- Sequence (Q9NYK1 27-1049): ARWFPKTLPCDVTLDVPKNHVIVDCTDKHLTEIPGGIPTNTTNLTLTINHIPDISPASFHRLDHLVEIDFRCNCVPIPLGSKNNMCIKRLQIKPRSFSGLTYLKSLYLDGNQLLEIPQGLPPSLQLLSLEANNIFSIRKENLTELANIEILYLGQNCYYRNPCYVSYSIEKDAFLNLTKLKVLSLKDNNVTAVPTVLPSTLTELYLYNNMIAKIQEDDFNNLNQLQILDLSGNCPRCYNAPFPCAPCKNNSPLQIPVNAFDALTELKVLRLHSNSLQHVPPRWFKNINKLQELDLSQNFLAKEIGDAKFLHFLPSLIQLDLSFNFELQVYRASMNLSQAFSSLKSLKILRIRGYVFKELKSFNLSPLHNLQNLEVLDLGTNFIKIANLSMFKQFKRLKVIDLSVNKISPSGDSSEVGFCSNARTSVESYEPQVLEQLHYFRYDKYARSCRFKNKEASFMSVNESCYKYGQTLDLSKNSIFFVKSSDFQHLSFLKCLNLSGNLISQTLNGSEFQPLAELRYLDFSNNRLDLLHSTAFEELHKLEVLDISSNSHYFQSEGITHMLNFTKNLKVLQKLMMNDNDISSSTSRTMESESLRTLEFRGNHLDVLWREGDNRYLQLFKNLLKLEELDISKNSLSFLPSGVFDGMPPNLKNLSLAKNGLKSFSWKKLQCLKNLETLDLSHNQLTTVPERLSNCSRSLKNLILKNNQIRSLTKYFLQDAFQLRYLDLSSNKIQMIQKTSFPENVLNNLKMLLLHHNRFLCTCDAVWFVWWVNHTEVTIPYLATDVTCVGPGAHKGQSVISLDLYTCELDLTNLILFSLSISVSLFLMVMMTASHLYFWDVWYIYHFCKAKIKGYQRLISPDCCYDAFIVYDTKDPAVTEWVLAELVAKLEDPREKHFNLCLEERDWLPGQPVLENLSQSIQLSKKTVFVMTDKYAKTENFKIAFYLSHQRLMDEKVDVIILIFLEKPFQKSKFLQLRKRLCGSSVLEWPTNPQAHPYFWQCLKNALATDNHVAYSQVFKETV
- TEST_PROTOCOL: Human TLR7 Assay (SEAP reporter);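 also: SEAP driven by an NFkB-responsive composite promoter, pEC50 read at half of each compound's own maximal SEAP induction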
- TEST_PARAMETERS: HEK293 cell line stably expressing human TLR7 and pNiFty2-SEAP reporter; SEAP induction after overnight incubation at 37° C., 0.1% (v/v) DMSO
# EC50 values compiled below
Write the number in nM without appending the unit.

Examples from the recorded data:
entry_smiles=CCCCNc1nc(N)nc(C)c1Sc1ccc(CC(=O)OCCCCN2CCCC2)cc1 readout_name=EC50 value_unit=nM measured=50.1
entry_smiles=CCCCNc1nc(N)nc(C)c1Cc1ccc(CC(=O)OCC2CCN(C)CC2)cc1OC readout_name=EC50 value_unit=nM measured=15.8
entry_smiles=CCCCCNc1nc(N)nc(C)c1CCCN(Cc1ccc(CC(=O)OC)cc1)C(=O)CN1CCCCC1 readout_name=EC50 value_unit=nM measured=794
entry_smiles=CCC[C@@H](CO)Nc1nc(N)nc(C)c1Cc1ccc(CC(=O)OCC2CCN(C)CC2)cc1OC readout_name=EC50 value_unit=nM measured=20
entry_smiles=CCCC[C@@H](CCO)Nc1nc(N)nc(C)c1Cc1ccc(CC(=O)OC)cc1 readout_name=EC50 value_unit=nM measured=158

Exam item: Please give the measured EC50 for this molecule: CCCCCNc1nc(N)nc(C)c1Cc1ccc(CC(=O)OCCC2CCN(C)CC2)cc1
Marked response: 158

Exam item: How about CCCCCNc1nc(N)nc(C)c1Cc1ccc(CC(=O)OCC2CCNCC2)cc1 ?
Marked response: 794

Exam item: How about CCCCCNc1nc(N)nc(C)c1Cc1ccc(CC(=O)OCCCCN2CCN(C)CC2)cc1 ?
Marked response: 158
